Please respond with reported inhibition for every item in the list.
Target: Vascular endothelial growth factor receptor 2 (Homo sapiens) (UniProt P35968)
Sequence (P35968 whole entry, looked up): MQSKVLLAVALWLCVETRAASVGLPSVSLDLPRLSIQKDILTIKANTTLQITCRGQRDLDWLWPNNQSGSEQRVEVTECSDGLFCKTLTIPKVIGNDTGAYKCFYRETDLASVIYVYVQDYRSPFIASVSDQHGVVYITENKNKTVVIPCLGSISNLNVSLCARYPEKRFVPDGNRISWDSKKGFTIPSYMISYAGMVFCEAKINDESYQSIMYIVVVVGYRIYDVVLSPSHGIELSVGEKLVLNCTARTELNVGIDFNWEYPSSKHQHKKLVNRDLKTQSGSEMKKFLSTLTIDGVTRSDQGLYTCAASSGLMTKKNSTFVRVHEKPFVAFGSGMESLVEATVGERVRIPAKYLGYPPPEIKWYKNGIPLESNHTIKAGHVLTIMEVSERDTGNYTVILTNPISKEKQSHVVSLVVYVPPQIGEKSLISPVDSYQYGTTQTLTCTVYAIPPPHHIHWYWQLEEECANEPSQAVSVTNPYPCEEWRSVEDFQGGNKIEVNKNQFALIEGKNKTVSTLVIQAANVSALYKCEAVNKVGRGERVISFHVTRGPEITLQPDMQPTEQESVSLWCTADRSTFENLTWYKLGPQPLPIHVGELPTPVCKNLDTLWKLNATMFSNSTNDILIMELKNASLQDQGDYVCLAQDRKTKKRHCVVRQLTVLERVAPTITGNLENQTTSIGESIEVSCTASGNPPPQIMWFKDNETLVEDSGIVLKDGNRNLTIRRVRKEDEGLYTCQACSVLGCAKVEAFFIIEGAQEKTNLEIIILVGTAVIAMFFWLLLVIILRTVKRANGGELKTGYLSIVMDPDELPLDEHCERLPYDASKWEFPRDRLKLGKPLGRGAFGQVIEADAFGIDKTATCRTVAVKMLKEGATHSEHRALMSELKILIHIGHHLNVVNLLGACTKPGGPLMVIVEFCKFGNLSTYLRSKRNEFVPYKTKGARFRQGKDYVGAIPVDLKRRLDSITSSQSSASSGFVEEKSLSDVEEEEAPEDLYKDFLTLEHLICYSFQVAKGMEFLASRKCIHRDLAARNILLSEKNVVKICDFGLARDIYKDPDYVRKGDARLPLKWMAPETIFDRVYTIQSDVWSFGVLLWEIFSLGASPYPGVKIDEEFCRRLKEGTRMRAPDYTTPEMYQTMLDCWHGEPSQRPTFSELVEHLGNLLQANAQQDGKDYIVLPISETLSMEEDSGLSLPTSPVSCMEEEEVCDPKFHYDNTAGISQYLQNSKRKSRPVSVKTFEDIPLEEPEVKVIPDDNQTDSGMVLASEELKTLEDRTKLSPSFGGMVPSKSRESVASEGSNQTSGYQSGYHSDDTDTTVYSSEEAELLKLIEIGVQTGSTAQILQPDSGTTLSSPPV
Assay: VEGFR2 inhibitors, primary assay, biochemical, Homo sapiens, LANCE Ultra TR-FRET, NPC library (AID 1117353)
Conditions: LANCE Ultra TR-FRET kinase assay; at 20 µM (top of the series)
Reply numerically in %, unit not repeated.

For the compound shown here, CC[C@]1(O)C[C@H]2CN(CCc3c([nH]c4ccccc34)[C@@](C(=O)OC)(c3cc4c(cc3OC)N(C=O)[C@H]3[C@@](O)(C(=O)OC)[C@H](OC(C)=O)[C@]5(CC)C=CCN6CC[C@]43[C@@H]65)C2)C1 , give the reported inhibition. -11.3

For the compound shown here, COc1cc2c(c(OC)c1OC)-c1ccc(OC)c(=O)cc1[C@@H](NC(C)=O)CC2 , give the reported inhibition. -20.7

For the compound shown here, COCc1c(C(C)C)nc(C(C)C)c(/C=C/[C@@H](O)C[C@@H](O)CC(=O)O)c1-c1ccc(F)cc1 , give the reported inhibition. 31.8

For the compound shown here, NC(=NCCCCCCN=C(N)/N=C(\N)Nc1ccc(Cl)cc1)/N=C(\N)Nc1ccc(Cl)cc1 , give the reported inhibition. -1.66
